# Measurement target: CDK11B/Cyclin K (Homo sapiens)
# Sequence (P21127 whole entry): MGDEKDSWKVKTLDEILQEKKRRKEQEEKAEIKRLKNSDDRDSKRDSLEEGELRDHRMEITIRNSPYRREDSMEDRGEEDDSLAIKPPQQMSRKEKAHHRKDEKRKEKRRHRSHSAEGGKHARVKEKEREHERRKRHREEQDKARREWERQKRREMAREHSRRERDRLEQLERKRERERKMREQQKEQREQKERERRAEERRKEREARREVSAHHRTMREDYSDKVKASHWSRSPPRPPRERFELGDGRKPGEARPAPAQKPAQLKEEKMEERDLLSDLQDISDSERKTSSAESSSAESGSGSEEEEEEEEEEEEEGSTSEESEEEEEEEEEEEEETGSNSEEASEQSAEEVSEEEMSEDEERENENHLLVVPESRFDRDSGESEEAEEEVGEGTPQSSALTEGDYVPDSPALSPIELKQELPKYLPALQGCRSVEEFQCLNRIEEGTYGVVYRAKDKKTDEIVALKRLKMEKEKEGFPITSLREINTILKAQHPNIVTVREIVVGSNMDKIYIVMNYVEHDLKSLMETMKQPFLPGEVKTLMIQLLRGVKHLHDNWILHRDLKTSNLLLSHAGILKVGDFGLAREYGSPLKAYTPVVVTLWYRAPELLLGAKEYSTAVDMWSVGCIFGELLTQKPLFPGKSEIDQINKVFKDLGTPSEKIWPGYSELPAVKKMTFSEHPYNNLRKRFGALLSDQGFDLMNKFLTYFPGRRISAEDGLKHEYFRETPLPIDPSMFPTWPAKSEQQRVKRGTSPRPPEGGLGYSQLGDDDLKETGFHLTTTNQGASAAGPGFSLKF
# Measurement description: NanoBRET
# Protocol conditions: read-out: NanoBRET EC50 ± SEM CDK11B/Cyclin K
Parameter measured: EC50 (µM)

N#CCc1ccc(Nc2nccc(Nc3cc(C4CC4)[nH]n3)n2)cc1 [compound 1, reference compound] :: 0.926

A. COC(=O)c1cc(Nc2ccnc(NCc3ccc(NC(=O)OC(C)(C)C)cc3)n2)[nH]n1 [21i]
B. CC(C)(C)OC(=O)Nc1ccc(CNc2nccc(Nc3cc(C(=O)OC(C)(C)C)[nH]n3)n2)cc1 [43d]
C. CC(C)OC(=O)c1cc(Nc2ccnc(NCc3ccc(NC(=O)OC(C)(C)C)cc3)n2)n[nH]1 [42d]
In: Given 3 compounds, produce a descending ranking by EC50. Write the labels, ordered according to the request.
Out: A, B, C
(A: 22.9 µM, B: 7.96 µM, C: 3.86 µM)

====

# Measurement target: CDK17/Cyclin Y (Homo sapiens)
# Sequence (Q00537 whole entry): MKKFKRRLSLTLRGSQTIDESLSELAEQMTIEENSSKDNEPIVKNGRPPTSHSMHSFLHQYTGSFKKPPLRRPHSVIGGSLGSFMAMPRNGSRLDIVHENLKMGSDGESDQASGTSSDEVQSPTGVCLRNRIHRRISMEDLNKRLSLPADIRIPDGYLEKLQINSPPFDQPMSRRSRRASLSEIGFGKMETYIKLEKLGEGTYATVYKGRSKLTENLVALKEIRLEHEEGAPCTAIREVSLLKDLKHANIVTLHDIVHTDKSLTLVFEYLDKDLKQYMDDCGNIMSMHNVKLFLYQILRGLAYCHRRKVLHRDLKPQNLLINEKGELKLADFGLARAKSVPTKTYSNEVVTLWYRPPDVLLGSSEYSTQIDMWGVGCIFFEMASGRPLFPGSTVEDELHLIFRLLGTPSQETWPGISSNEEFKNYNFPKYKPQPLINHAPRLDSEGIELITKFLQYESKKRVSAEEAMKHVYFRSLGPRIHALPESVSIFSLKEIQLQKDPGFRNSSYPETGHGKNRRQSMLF
# Sequence (Q8ND76 2-341 partner limits assumed): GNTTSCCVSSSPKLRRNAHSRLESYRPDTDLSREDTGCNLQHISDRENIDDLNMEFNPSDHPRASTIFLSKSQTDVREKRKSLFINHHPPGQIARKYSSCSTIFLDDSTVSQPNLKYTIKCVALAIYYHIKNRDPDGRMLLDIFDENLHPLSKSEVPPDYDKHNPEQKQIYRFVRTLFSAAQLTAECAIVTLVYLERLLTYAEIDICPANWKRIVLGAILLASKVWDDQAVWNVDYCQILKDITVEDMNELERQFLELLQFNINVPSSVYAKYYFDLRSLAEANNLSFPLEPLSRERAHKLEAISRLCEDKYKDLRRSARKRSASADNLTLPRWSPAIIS
# Measurement description: NanoBRET
# Protocol conditions: read-out: NanoBRET EC50 ± SEM CDK17/Cyclin Y
Parameter measured: EC50 (nM)

N#CCc1ccc(Nc2nccc(Nc3cc(C4CC4)[nH]n3)n2)cc1 [compound 1, reference compound] :: 9.9

I. COC(=O)c1cc(Nc2ccnc(NCc3ccc(NC(=O)OC(C)(C)C)cc3)n2)[nH]n1 [21i]
II. CC(C)OC(=O)c1cc(Nc2ccnc(NCc3ccc(NC(=O)OC(C)(C)C)cc3)n2)n[nH]1 [42d]
III. CC(C)(C)OC(=O)Nc1ccc(CNc2nccc(Nc3cc(C(=O)OC(C)(C)C)[nH]n3)n2)cc1 [43d]
In: Order the records, beginning with the lowest EC50 and ending with the highest. Sort the labels as requested; that list is your answer.
Out: III, II, I
(III: 21.2 nM, II: 33.7 nM, I: 673 nM)

====

# Measurement target: TTK (Homo sapiens, UniProt P33981);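 also: compound tested at 10 µM with 2 µM protein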
# Construct: purchased in-house DSF panel (SGC Frankfurt)
# Sequence (P33981 519-808): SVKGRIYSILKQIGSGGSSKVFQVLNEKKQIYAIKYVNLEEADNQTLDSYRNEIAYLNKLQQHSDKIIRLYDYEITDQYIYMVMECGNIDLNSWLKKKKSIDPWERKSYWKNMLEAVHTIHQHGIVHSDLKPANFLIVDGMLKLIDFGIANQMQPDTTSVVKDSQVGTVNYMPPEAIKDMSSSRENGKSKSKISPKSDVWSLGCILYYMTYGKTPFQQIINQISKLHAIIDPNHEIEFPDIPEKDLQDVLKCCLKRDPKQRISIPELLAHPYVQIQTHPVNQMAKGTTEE
# Measurement description: DSF
# Assay type: binding
Parameter measured: ΔTm TTK (°C)

N#CCc1ccc(Nc2nccc(Nc3cc(C4CC4)[nH]n3)n2)cc1 [compound 1, reference compound] :: 8.8

1. COC(=O)c1cc(Nc2ccnc(NCc3ccc(NC(=O)OC(C)(C)C)cc3)n2)[nH]n1 [21i]
2. CC(C)(C)OC(=O)Nc1ccc(CNc2nccc(Nc3cc(C(=O)OC(C)(C)C)[nH]n3)n2)cc1 [43d]
3. CC(C)OC(=O)c1cc(Nc2ccnc(NCc3ccc(NC(=O)OC(C)(C)C)cc3)n2)n[nH]1 [42d]
4. COC(=O)c1cc(Nc2ccnc(NCCOCCNC(=O)OC(C)(C)C)n2)[nH]n1 [21d]
In: Please give the order of these compounds when sorted by ΔTm TTK, largest value leading. API: response body holds the labels in the requested order.
Out: 4, 1, 3, 2
(4: 1.6 °C, 1: 0.0 °C, 3: -0.1 °C, 2: -0.2 °C)

====

# Measurement target: BMPR2 (Homo sapiens, UniProt Q13873)
# Construct: purchased in-house DSF panel (SGC Frankfurt)
# Sequence (Q13873 27-1038): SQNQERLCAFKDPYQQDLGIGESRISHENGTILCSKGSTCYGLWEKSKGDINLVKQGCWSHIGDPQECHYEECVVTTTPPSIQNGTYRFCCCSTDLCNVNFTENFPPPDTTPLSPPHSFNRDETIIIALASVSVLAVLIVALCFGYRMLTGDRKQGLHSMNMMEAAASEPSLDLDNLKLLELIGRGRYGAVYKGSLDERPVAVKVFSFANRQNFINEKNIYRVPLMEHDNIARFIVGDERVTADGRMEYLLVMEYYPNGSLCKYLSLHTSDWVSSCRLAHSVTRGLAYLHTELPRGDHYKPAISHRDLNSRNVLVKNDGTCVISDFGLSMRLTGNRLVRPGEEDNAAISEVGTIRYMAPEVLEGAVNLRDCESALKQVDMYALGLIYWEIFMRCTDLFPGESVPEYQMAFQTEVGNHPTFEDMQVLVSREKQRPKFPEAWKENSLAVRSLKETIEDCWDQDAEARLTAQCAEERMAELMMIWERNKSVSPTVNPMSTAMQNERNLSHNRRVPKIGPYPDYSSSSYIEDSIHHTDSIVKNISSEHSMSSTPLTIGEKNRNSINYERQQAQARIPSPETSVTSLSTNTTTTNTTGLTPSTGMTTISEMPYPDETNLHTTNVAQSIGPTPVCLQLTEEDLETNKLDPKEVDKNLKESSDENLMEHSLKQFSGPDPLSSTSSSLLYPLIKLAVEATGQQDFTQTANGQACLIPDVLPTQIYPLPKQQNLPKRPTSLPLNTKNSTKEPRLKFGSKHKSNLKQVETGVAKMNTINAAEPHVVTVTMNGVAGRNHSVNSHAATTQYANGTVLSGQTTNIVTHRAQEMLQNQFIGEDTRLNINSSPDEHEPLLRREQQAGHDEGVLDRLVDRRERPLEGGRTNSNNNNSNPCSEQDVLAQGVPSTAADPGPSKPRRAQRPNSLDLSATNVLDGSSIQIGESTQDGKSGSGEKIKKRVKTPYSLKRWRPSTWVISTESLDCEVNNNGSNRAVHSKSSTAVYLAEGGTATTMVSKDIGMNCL
# Measurement description: DSF
# Type: binding
Parameter measured: ΔTm BMPR2 (°C)

Here is how some molecules turned out for ΔTm BMPR2.
COC(=O)c1cc(Nc2ccnc(NCc3ccc(NC(=O)OC(C)(C)C)cc3)n2)[nH]n1 [21i] :: 1.1
N#CCc1ccc(Nc2nccc(Nc3cc(C4CC4)[nH]n3)n2)cc1 [compound 1, reference compound] :: 9.2
CC(C)OC(=O)c1cc(Nc2ccnc(NCc3ccc(NC(=O)OC(C)(C)C)cc3)n2)n[nH]1 [42d] :: 0.9

A. COC(=O)c1cc(Nc2ccnc(NCCOCCNC(=O)OC(C)(C)C)n2)[nH]n1 [21d]
B. CC(C)(C)OC(=O)Nc1ccc(CNc2nccc(Nc3cc(C(=O)OC(C)(C)C)[nH]n3)n2)cc1 [43d]
In: Compare A and B by numeric ΔTm BMPR2 and name the larger one. Please reply using the label of the selected record.
Out: B
(B: 1.4 °C, A: 0.7 °C)

====

# Measurement target: MARK4 (Homo sapiens, UniProt Q96L34)
# Construct: purchased in-house DSF panel (SGC Frankfurt)
# Sequence (Q96L34 59-310): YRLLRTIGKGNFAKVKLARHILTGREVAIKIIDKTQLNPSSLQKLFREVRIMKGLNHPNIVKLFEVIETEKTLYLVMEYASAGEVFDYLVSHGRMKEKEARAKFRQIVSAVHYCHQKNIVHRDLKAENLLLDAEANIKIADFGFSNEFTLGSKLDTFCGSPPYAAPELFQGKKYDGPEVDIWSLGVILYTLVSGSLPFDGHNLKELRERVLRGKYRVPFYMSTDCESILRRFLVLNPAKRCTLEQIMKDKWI
# Measurement description: DSF
# Assay type: binding
Parameter measured: ΔTm MARK4 (°C)

Observe how each entry below is paired with its result.
COC(=O)c1cc(Nc2ccnc(NCc3ccc(NC(=O)OC(C)(C)C)cc3)n2)[nH]n1 [21i] :: 3.3
COC(=O)c1cc(Nc2ccnc(NCCOCCNC(=O)OC(C)(C)C)n2)[nH]n1 [21d] :: 1.7
N#CCc1ccc(Nc2nccc(Nc3cc(C4CC4)[nH]n3)n2)cc1 [compound 1, reference compound] :: 8.2
CN[C@@H]1C[C@H]2O[C@@](C)([C@@H]1OC)n1c3ccccc3c3c4c(c5c6ccccc6n2c5c31)C(=O)NC4 [staurosporine, reference compound] :: 16.4

P. CC(C)OC(=O)c1cc(Nc2ccnc(NCc3ccc(NC(=O)OC(C)(C)C)cc3)n2)n[nH]1 [42d]
Q. CC(C)(C)OC(=O)Nc1ccc(CNc2nccc(Nc3cc(C(=O)OC(C)(C)C)[nH]n3)n2)cc1 [43d]
In: In terms of reported ΔTm MARK4, does P or Q have the smaller number? Write down the label of the entry you select.
Out: Q
(Q: -0.5 °C, P: 0.3 °C)

====

# Measurement target: CAMK2D (Homo sapiens, UniProt Q13557);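 also: compound tested at 10 µM with 2 µM protein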
# Construct: purchased in-house DSF panel (SGC Frankfurt)
# Sequence (Q13557 11-309): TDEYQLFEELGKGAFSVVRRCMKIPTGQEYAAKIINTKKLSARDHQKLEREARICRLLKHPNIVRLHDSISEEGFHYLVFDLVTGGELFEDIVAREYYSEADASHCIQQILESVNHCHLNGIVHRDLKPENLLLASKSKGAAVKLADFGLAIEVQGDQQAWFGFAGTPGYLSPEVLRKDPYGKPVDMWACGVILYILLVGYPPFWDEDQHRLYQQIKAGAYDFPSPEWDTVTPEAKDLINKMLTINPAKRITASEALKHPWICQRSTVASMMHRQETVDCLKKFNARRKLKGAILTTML
# Measurement description: DSF
# Format: binding
Parameter measured: ΔTm CAMK2D (°C)

A. CC(C)(C)OC(=O)Nc1ccc(CNc2nccc(Nc3cc(C(=O)OC(C)(C)C)[nH]n3)n2)cc1 [43d]
B. COC(=O)c1cc(Nc2ccnc(NCCOCCNC(=O)OC(C)(C)C)n2)[nH]n1 [21d]
C. CC(C)OC(=O)c1cc(Nc2ccnc(NCc3ccc(NC(=O)OC(C)(C)C)cc3)n2)n[nH]1 [42d]
In: List items by ΔTm CAMK2D in falling order. Labels, requested order.
Out: B, A, C
(B: 0.8 °C, A: -0.1 °C, C: -0.4 °C)

====

# Measurement target: CDK20/Cyclin H (Homo sapiens, UniProt Q8IZL9)
# Sequence (Q8IZL9 whole entry): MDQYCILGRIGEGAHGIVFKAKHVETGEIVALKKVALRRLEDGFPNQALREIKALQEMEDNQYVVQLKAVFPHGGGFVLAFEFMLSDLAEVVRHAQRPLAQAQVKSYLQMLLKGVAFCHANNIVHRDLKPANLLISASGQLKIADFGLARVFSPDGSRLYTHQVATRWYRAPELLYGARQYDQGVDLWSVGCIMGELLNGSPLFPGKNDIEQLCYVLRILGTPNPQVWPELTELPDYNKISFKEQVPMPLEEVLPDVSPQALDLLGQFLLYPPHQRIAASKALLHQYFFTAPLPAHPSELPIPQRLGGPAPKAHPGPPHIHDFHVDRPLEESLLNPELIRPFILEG
# Sequence (P51946 whole entry partner): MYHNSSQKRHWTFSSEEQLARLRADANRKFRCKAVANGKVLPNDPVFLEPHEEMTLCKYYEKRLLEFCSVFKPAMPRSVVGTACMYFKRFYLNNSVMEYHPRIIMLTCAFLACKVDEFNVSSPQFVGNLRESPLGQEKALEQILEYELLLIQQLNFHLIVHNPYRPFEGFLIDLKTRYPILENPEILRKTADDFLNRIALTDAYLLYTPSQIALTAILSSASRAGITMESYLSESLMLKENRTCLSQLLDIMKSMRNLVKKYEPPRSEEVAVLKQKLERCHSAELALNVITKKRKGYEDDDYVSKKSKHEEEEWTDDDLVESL
# Measurement description: NanoBRET
# Format: cell-based
# Protocol conditions: read-out: NanoBRET EC50 ± SEM CDK20/Cyclin H
Parameter measured: EC50 (µM)

Example cases with answers are listed next.
CC(C)(C)OC(=O)Nc1ccc(CNc2nccc(Nc3cc(C(=O)OC(C)(C)C)[nH]n3)n2)cc1 [43d] :: 1.71
N#CCc1ccc(Nc2nccc(Nc3cc(C4CC4)[nH]n3)n2)cc1 [compound 1, reference compound] :: 2.66

I. COC(=O)c1cc(Nc2ccnc(NCc3ccc(NC(=O)OC(C)(C)C)cc3)n2)[nH]n1 [21i]
II. CC(C)OC(=O)c1cc(Nc2ccnc(NCc3ccc(NC(=O)OC(C)(C)C)cc3)n2)n[nH]1 [42d]
In: Lowest EC50? choose I or II Lab note: record the label of whichever item you select.
Out: II
(II: 0.745 µM, I: 8.42 µM)
